# measured_target: tau (Homo sapiens, UniProt P10636)
# Sequence (P10636 1-441 isoform P10636-8): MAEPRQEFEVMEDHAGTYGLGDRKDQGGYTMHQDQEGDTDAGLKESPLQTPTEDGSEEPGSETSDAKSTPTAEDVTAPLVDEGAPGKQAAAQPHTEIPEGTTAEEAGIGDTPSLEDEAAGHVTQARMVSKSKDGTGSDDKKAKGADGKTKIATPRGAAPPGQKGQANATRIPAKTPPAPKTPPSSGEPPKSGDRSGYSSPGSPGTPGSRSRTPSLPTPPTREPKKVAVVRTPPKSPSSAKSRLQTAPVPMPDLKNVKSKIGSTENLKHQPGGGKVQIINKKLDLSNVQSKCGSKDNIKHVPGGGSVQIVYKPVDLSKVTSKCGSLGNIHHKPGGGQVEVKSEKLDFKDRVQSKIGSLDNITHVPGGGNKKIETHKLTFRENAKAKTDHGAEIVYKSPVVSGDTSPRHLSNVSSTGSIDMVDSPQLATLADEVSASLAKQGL
# measurement_description: In vitro tau aggregation with ThS (Thioflavin S)
# Assay type: biochemical
# particulars: Tau pre-Agg+100 uM DTT+0.1 mg/mL Heparin, 37° C.
reported_metric: pIC50
In plain terms, pIC50 is the concentration in mol/L turned into minus its base-10 logarithm.

The reported pIC50 of the compound C[C@@H]1CC(=O)NN=C1c1ccc(NN=C(C#N)C#N)cc1 was 5.33
